biological target: Peptidase, M28 family (Tannerella forsythia (strain ATCC 43037 / JCM 10827 / CCUG 21028 A / KCTC 5666 / FDC 338))
Sequence (G8UMP8 whole entry): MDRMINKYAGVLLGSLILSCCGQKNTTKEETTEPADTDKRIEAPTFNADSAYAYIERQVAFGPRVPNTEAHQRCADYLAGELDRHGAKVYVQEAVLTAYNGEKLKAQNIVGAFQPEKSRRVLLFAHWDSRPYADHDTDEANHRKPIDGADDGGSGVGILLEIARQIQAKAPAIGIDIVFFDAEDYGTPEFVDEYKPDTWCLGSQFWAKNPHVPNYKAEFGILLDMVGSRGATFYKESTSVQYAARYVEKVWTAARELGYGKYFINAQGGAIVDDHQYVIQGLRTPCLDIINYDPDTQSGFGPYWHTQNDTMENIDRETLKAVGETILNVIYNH
pKi: −log10 of the molar value.
Reported pKi values follow for various compounds
Measure: pKi

- Test Smiles: "c1ccc(CNc2cnc3[nH]cnc3c2)cc1"
  Quantitative Readout: 5.85
- Test Smiles: "c1nc2cc(NCc3ccc4c(c3)OCCO4)cnc2[nH]1"
  Quantitative Readout: 6.17
- Test Smiles: "Clc1ccc(CNc2cnc3[nH]cnc3c2)cc1Cl"
  Quantitative Readout: 6.45
- Test Smiles: "NCCOc1ccc(CNc2cnc3[nH]cnc3c2)cc1"
  Quantitative Readout: 6.50

FYI, the data here is from BindingDB's records for patent US11958871.
